# System: Dopamine D2 Receptor (Rattus norvegicus, UniProt P61169)
# Sequence (P61169 whole entry): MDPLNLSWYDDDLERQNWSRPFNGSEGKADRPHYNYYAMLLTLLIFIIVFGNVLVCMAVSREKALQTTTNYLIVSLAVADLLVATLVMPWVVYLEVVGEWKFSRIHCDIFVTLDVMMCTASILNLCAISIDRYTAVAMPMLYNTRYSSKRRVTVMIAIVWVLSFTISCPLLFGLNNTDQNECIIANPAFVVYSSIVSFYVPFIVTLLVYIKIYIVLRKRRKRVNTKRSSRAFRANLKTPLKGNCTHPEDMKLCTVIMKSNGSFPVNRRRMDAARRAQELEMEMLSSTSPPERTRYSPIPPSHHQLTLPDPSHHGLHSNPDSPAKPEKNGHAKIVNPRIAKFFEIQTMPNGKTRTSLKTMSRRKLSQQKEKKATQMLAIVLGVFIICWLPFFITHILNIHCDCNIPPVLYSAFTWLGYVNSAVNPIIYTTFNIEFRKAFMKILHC
# Method description: Dopamine D2 Receptor Binding Assay (displacement of [^3 H]raclopride)
# Protocol conditions: rat striatum membrane, [^3 H]raclopride (1 nM), 25° C., an hour
pIC50: −log10 of the molar value. Counter-ions that a name gives are not always drawn.
Quantity: pIC50

Molecule: Oc1nc(-c2ccc(F)cc2)c(CCN2CCC(=Cc3cccc(F)c3)CC2)s1
Quantity: pIC50
Result value: 7.13

P = Fc1ccc(-c2[nH]ncc2CCN2CCC(=Cc3ccccc3F)CC2)cc1 [Compound A-03, oxalate]
Q = Fc1ccc(-c2ncncc2CCN2CCC(=Cc3ccccc3F)CC2)cc1 [Compound A-12, dihydrochloride]
Q: Higher pIC50 between P and Q ? Lab log: write the label of the selected item as the result.
A: P

---

# System: human D4.2 receptor (Homo sapiens, UniProt P21917, DEL265-296)
# Sequence (P21917 with tags, fused parts or gaps DEL265-296): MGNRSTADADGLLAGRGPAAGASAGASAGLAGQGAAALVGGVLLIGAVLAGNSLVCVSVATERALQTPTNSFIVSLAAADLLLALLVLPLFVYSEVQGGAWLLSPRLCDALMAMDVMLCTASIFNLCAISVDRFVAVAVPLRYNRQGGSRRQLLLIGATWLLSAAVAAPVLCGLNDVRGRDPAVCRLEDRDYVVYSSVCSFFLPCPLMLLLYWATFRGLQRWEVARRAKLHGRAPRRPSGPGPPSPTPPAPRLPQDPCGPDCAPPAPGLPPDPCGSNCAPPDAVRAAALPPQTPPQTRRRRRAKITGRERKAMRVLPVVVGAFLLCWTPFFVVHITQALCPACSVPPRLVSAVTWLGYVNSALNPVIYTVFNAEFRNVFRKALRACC
# Method description: Dopamine D4 Receptor Binding Assay (displacement of [^3 H]spiperone)
# Protocol conditions: human D4.2 in CHO cell membranes, pH 7.4, 27° C., 2 hours
# Experimental: 1. Dopamine D4 Receptor Binding Assay Chinese hamster ovarium (CHO) cell membranes wherein human D4.2 receptor was expressed were used as a receptor preparation. [^3 H]spiperone was used as [^3 H]-labeled ligand. […] After completion of the reaction, the reaction solution was filtered by suction through a glass filter (GF/B), and the radioactivity on the filter was measured by a liquid scintillation spectrometer. […]
Structures can show the parent of a compound that is named as a salt.
Quantity: IC50 (nM)

Reference set (3 entries):
Compound: Oc1nc(-c2ccc(F)cc2)c(CCN2CCC(=Cc3cccc(F)c3)CC2)s1
System: human D4.2 receptor (Homo sapiens, UniProt P21917, DEL265-296)
Result value: 1.96

Compound: Cc1ccc(C=C2CCN(CCc3cn[nH]c3-c3ccc(F)cc3)CC2)cc1
System: human D4.2 receptor (Homo sapiens, UniProt P21917, DEL265-296)
Result value: 2.85

Compound: Cc1ccc(-c2[nH]ncc2CCN2CCC(=Cc3ccc(F)cc3)CC2)cc1
System: human D4.2 receptor (Homo sapiens, UniProt P21917, DEL265-296)
Result value: 1.96

I = Fc1ccc(-c2ncncc2CCN2CCC(=Cc3ccccc3F)CC2)cc1 [Compound A-12, dihydrochloride]
II = Fc1ccc(-c2[nH]ncc2CCN2CCC(=Cc3ccccc3F)CC2)cc1 [Compound A-03, oxalate]
III = Fc1ccc(-c2nc(S)ncc2CCN2CCC(=Cc3ccccc3F)CC2)cc1
Q: Arrange these compounds by their IC50, starting with the largest number. Use the labels to give the ranking in the order requested.
A: I, III, II

---

# System: human D4.2 receptor (Homo sapiens, UniProt P21917, DEL265-296)
# Method description: Dopamine D4 Receptor Binding Assay (displacement of [^3 H]spiperone)
# Protocol conditions: human D4.2 in CHO cell membranes, pH 7.4, 27° C., 2 hours
# Procedure: 1. Dopamine D4 Receptor Binding Assay Chinese hamster ovarium (CHO) cell membranes wherein human D4.2 receptor was expressed were used as a receptor preparation. [^3 H]spiperone was used as [^3 H]-labeled ligand. […] After completion of the reaction, the reaction solution was filtered by suction through a glass filter (GF/B), and the radioactivity on the filter was measured by a liquid scintillation spectrometer. […]
Quantity: IC50 (nM)

Some entries whose results are on file:
Smiles entry: Fc1ccc(-c2[nH]ncc2CCN2CCC(=Cc3cccc(F)c3)CC2)cc1
Unit of measurement: nM
IC50: 1.12
--
Smiles entry: Fc1ccc(C=C2CCN(CCc3cn[nH]c3-c3ccc(F)cc3)CC2)cc1
Unit of measurement: nM
IC50: 1.23

A = CSc1nc(-c2ccc(F)cc2)c(CCN2CCC(=Cc3cccc(F)c3)CC2)[nH]1
B = Nc1ncc(CCN2CCC(=Cc3ccccc3F)CC2)c(-c2ccc(F)cc2)n1
C = O=C(c1ccc(F)cc1)C1CCN(CCc2sc(O)nc2-c2ccc(F)cc2)CC1
Q: List items by IC50 in falling order. Labels, requested order.
A: C, B, A
(C: 2.85 nM, B: 1.96 nM, A: 1.12 nM)

src = patent US6291467A
